ASSAYED_TARGET: T1, mouse vascular endothelial growth factor receptor-2 Fc chimera (Flk-1-Fc) (mouse, UniProt P35918 20-762)
T1 construct: bought from R&D Systems; also called mouse VEGF-R2-Fc; Fc part of the bought chimera not given, not described
T1 sequence (P35918 20-762, change not shown): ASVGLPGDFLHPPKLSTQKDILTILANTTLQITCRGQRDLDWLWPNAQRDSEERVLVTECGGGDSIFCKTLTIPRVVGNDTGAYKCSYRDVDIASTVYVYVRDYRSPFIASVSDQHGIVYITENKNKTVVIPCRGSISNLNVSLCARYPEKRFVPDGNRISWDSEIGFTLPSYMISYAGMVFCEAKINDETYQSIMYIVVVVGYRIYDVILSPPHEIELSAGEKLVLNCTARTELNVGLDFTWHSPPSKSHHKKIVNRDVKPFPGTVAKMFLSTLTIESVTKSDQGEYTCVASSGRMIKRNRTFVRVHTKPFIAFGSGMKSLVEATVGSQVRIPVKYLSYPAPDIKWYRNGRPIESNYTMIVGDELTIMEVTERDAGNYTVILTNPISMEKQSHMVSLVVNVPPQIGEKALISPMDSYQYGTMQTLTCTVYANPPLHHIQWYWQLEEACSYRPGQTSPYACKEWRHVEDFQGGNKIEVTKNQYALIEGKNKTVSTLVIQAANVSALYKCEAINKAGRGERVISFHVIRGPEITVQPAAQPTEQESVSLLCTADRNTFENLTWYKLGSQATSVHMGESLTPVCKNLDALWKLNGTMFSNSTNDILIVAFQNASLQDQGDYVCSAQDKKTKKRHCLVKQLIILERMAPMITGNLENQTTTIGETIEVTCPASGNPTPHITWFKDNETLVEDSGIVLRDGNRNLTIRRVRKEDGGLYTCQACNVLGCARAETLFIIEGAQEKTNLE
ASSAY_SUMMARY: BIAcore, Flk-1-Fc immobilised on CM5 chip
PROPERTY_LABEL: koff

BINDER	koff
E18, E. coli-expressed, His6 (designed binder, soluble E. coli form; N-terminal residues added for expression not described) EVVAATPTSLLISWRHPHFPTRYYRITYGETGGNSPVQEFTVPLQPPTATISGLKPGVDYTITGYAVTVERNGRELNTPISINYRTEIDKPSQHHHHHH	0.000195 s⁻¹
E6, E. coli-expressed, His6 (designed binder, soluble E. coli form; N-terminal residues added for expression not described) EVVAATPTSLLISWRHPHFPTRYYRITYGETGGNSPVQEFTVPLQPPTATISGLKPGVDYTITGYAVTDGWNGRLLSIPISINYRTEIDKPSQHHHHHH	0.00136 s⁻¹
M5FL, E. coli-expressed, His6 (designed binder, soluble E. coli form with Ser100) VSDVPRDLEVVAATPTSLLISWRHPHFPTRYYRITYGETGGNSPVQEFTVPLQPPLATISGLKPGVDYTITVYAVTKERNGRELFTPISINYRTEIDKPSQHHHHHH	0.000582 s⁻¹
E29, E. coli-expressed, His6 (designed binder, soluble E. coli form; N-terminal residues added for expression not described) EVVAATPTSLLISWRHPHFPTRYYRITYGETGGNSPVQEFTVPLQPPTATISGLKPGVDYTITGYAVTVERNGRVLMTPISINYRTEIDKPSQHHHHHH	0.000288 s⁻¹

Q) Indicate its recorded koff; the binder in question is E19, E. coli-expressed, His6 (designed binder, soluble E. coli form; N-terminal residues added for expression not described) EVVAATPTSLLISWRHPHFPTRYYRITYGETGGNSPVQEFTVPLQPPTATISGLKPGVDYTITGYAVTVERNGRHLMTPISINYRTEIDKPSQHHHHHH
A) 0.000223 s⁻¹
